measurement_target: Metabotropic glutamate receptor 8 (Rattus norvegicus) (UniProt P70579)
Sequence (P70579 whole entry, looked up): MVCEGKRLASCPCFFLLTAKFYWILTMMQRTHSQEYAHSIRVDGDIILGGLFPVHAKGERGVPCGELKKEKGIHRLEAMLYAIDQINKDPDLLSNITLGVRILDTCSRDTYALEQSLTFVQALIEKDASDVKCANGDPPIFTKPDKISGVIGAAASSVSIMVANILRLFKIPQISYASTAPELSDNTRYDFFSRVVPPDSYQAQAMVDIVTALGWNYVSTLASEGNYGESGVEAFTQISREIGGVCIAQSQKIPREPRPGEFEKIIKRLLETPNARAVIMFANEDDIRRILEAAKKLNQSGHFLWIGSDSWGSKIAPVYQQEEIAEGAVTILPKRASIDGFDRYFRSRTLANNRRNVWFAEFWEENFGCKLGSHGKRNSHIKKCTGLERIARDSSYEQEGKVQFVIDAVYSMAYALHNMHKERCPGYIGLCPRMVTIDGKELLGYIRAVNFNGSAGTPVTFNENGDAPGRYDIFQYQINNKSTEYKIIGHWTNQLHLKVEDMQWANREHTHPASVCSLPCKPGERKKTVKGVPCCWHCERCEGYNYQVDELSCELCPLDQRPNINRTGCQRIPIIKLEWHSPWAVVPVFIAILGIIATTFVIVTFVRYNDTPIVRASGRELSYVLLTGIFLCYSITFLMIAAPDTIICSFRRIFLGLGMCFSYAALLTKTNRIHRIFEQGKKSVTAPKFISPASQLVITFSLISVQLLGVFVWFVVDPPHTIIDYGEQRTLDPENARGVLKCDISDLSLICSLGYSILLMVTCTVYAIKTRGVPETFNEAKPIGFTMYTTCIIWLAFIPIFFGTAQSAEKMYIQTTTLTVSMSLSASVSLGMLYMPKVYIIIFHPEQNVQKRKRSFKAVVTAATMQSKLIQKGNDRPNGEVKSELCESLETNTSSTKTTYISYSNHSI
assay_remarks: mGluR8 Gi/Go-coupled signaling modulation – cell-based, rat, thallium flux, HTS, primary screen (AID 488969)
experimental_conditions: HEK293 rat mGluR8, GIRK thallium flux, FluoZin2; at 10 µM; stronger effect = higher value; submaximal glutamate (EC20) added with thallium
The full ranking holds about 110,000 compounds; the median of “z-score” is about -0.1, and the highest 2% start at about 2. The entries come from a sample that favours the highest values as a whole.
Decision: z-score >= -0.05 yields true (1), all other cases yield false (0).

Look over these answered cases.
{"compound": "CCc1ccc2c(c1)c1nnc(NN)nc1n2CC", "group_label": "false (0)"}
{"compound": "CCn1c(O)c(N=NC2=NC(=O)CS2)c2cc(C)ccc21", "group_label": "true (1)"}
{"compound": "O=C(CSc1nc2ccccc2c(=O)n1Cc1ccco1)NCc1ccco1", "group_label": "false (0)"}
{"compound": "CCn1c(O)c(N=NC2=NC(=O)CS2)c2ccccc21", "group_label": "true (1)"}
{"compound": "CCOc1cc2[nH]c(=S)n(CCN3CCCCC3C)c(=O)c2cc1OCC (stereo unspecified)", "group_label": "true (1)"}
{"compound": "COc1ccc(NC(=O)CCCn2c(=S)[nH]c3ccccc3c2=O)cc1", "group_label": "false (0)"}

Kindly determine if z-score recorded for CCOc1ccccc1N1C(=O)CC(N(O)c2ccccc2)C1=O (stereo unspecified) is above or exactly -0.05.
false (0)

Kindly determine if z-score recorded for CCC1CCCCN1CCn1c(=S)[nH]c2cc(OC)c(OC)cc2c1=O (stereo unspecified) is above or exactly -0.05.
true (1)

Kindly determine if z-score recorded for CCN1CCN(CCn2c(=S)[nH]c3ccccc3c2=O)CC1 is above or exactly -0.05.
true (1)

====

measurement_target: Metabotropic glutamate receptor 8 (Rattus norvegicus) (UniProt P70579)
assay_remarks: mGluR8 Gi/Go-coupled signaling modulation – cell-based, rat, thallium flux, HTS, primary screen (AID 488969)
experimental_conditions: HEK293 rat mGluR8, GIRK thallium flux, FluoZin2; at 10 µM; stronger effect = higher value; submaximal glutamate (EC20) added with thallium
In all, about 110,000 compounds were measured (“z-score”: median about -0.1, highest 2% from about 2 on). This is one part of a sample in which the highest values are shown more often than they occur.
assay_endpoint: z-score
Give the value as a plain number.

Reference set (3 entries):
{"compound": "CCOC(=O)c1sc(C)c2c(=O)n(CC)nnc12", "z-score": 0.154}
{"compound": "CCC(CC)c1nnc(NC(=O)C2COc3ccccc3O2)s1 (stereo unspecified)", "z-score": 3.82}
{"compound": "CCC(=O)Nc1c(-c2ccc(OC)cc2)c(=O)c2ccccc2n1C", "z-score": 2.76}

Give the measured z-score of CCSc1nnc(NC(=O)c2ccc3ccccc3n2)s1 .
11.8

Give the measured z-score of CCc1ccc(NC(=O)c2cc(C)on2)cc1 .
-0.546

====

measurement_target: Metabotropic glutamate receptor 8 (Rattus norvegicus) (UniProt P70579)
assay_remarks: mGluR8 Gi/Go-coupled signaling modulation – cell-based, rat, thallium flux, HTS, primary screen (AID 488969)
experimental_conditions: HEK293 rat mGluR8, GIRK thallium flux, FluoZin2; at 10 µM; stronger effect = higher value; submaximal glutamate (EC20) added with thallium
Over roughly 110,000 compounds, “z-score” has its median near -0.1; the highest 2% begin near 2. The list comes from a sample in which the highest values are over-represented; it also holds close analogues and randomly drawn compounds.
Entries get a class label from measured z-score. See ranges: band A: < -0.2; band B: ≥ -0.2 and < 0.7; band C: ≥ 0.7

Look over these answered cases.
{"molecule": "COc1ccc(/C=C2\\CCOC2=O)cc1", "measurement_target": "Metabotropic glutamate receptor 8 (Rattus norvegicus) (UniProt P70579)", "group_label": "band B"}
{"molecule": "CC(=O)N1CN(C2CC(C)(C)NC(C)(C)C2)Cc2c1sc1c2CCCC1", "measurement_target": "Metabotropic glutamate receptor 8 (Rattus norvegicus) (UniProt P70579)", "group_label": "band B"}
{"molecule": "COc1ccc(-c2nnc(NC(=O)c3ccc(F)cc3)o2)cc1", "measurement_target": "Metabotropic glutamate receptor 8 (Rattus norvegicus) (UniProt P70579)", "group_label": "band C"}
{"molecule": "COc1ccc(/C=C2\\CCCC(C(=O)C(F)(F)F)=C2O)cc1", "measurement_target": "Metabotropic glutamate receptor 8 (Rattus norvegicus) (UniProt P70579)", "group_label": "band C"}
{"molecule": "CC1CN(Cc2ccccn2)CCC1=O (stereo not given)", "measurement_target": "Metabotropic glutamate receptor 8 (Rattus norvegicus) (UniProt P70579)", "group_label": "band A"}

As a next step, examine the molecule that follows.
Class label required: CCC(=O)Nc1nnc(-c2ccc(OC)cc2)o1
band A

====

measurement_target: Metabotropic glutamate receptor 8 (Rattus norvegicus)
assay_remarks: mGluR8 Gi/Go-coupled signaling modulation – cell-based, rat, thallium flux, HTS, primary screen (AID 488969)
experimental_conditions: HEK293 rat mGluR8, GIRK thallium flux, FluoZin2; at 10 µM; stronger effect = higher value; submaximal glutamate (EC20) added with thallium
The full ranking holds about 110,000 compounds; the median of “z-score” is about -0.1, and the highest 2% start at about 2. This excerpt belongs to a sample that is enriched for the highest values.
Reported z-score is given for each of the following compounds.
Give the value as a plain number.

{"compound": "COc1ccc(C(=O)N2CCC(C(=O)c3ccc(F)cc3)CC2)cc1", "z-score": -1.67}
{"compound": "O=C(CSc1ncn(-c2ccccc2)n1)Nc1ccc(Br)cn1", "z-score": -0.314}
{"compound": "Cc1[nH]c2ccc(F)cc2c(=O)c1SC(F)(F)C(F)F", "z-score": -1.3}
{"compound": "CCOC(=O)/C(C#N)=C/C1=C(N2CCCC2)CC(C)(C)OC1", "z-score": 2.75}
{"compound": "CCCCOC(=O)c1ccc(NC(=O)c2cnc3n(c2=O)CCS3)cc1", "z-score": 0.203}
{"compound": "COc1ccc(C(=O)N2C(=S)NC(=O)/C2=C\\c2ccc(C)cc2)cc1", "z-score": 2.75}

Give the measured z-score of O=S(=O)(c1ccc(Oc2ccc(Cl)cc2)c(S(=O)(=O)N2CCCCC2)c1)N1CCCCC1 .
-0.278

Give the measured z-score of CC(C)CC(NC(=O)c1ccc(Cl)cc1Cl)C(=O)O (stereo unspecified) .
-0.413

Give the measured z-score of CC(C)Oc1ccc(C(=O)NC2(C(F)(F)F)N=C3SCCN3C2=O)cc1 (stereo unspecified) .
0.873

Give the measured z-score of Cn1c2c(c(O)c(-c3ccccc3)c1=O)C(=O)CC(C)(C)C2 .
-0.119

Give the measured z-score of COc1ccc(/C=C/C(=O)Oc2ccc(/C=N\NC(=O)c3ccc(F)cc3)cc2)cc1 .
0.18

====

measurement_target: Metabotropic glutamate receptor 8 (Rattus norvegicus)
assay_remarks: mGluR8 Gi/Go-coupled signaling modulation – cell-based, rat, thallium flux, HTS, primary screen (AID 488969)
experimental_conditions: HEK293 rat mGluR8, GIRK thallium flux, FluoZin2; at 10 µM; stronger effect = higher value; submaximal glutamate (EC20) added with thallium
In all, about 110,000 compounds were measured (“z-score”: median about -0.1, highest 2% from about 2 on). Only a selection was taken, and the highest values are over-represented in it overall.
Decision: z-score >= 0.3 yields 1, all other cases yield -1.

Look over these answered cases.
{"compound": "N#C/C(=C\\c1cn(CCOc2ccccc2F)c2ccccc12)C(=O)NCc1cccs1", "group_label": -1}
{"compound": "COc1ccc(-c2noc(CSc3nnc(Cc4ccccc4)n3-c3ccc(Cl)cc3)n2)cc1", "group_label": 1}
{"compound": "O=C(c1ccc(OCC2CCCO2)cc1)N1CCN(c2ccccc2)CC1 (stereo not drawn)", "group_label": -1}

Kindly determine if z-score recorded for Cc1nn(CCc2n[nH]c(=S)n2C2CCCCC2)c(C)c1Br is above or exactly 0.3.
-1

====

measurement_target: Metabotropic glutamate receptor 8 (Rattus norvegicus) (UniProt P70579)
assay_remarks: mGluR8 Gi/Go-coupled signaling modulation – cell-based, rat, thallium flux, HTS, primary screen (AID 488969)
experimental_conditions: HEK293 rat mGluR8, GIRK (G protein-gated inwardly rectifying potassium channel) thallium flux, FluoZin2; at 10 µM; stronger effect = higher value; submaximal glutamate (EC20) added with thallium
The full ranking holds about 110,000 compounds; the median of “z-score” is about -0.1, and the highest 2% start at about 2. What follows is part of a selection rich in the highest values, with near analogues and random picks from the rest.
Decision: z-score >= 0.01 yields 1 (yes), all other cases yield 0 (no).

Look over these answered cases.
{"molecule": "COc1cc2c(cc1NC(=O)c1cccc(Br)c1)CCCC2", "group_label": "1 (yes)"}
{"molecule": "C=CCNC(=O)C(=O)N/N=C/c1ccco1", "group_label": "1 (yes)"}
{"molecule": "NC(=O)c1sc2nc(-c3ccco3)ccc2c1N", "group_label": "0 (no)"}
{"molecule": "O=C(COc1cc(O)c2c(=O)cc(-c3ccccc3)oc2c1)c1ccccc1", "group_label": "1 (yes)"}
{"molecule": "COC(=O)c1c(N)c(C#N)c(C)n1-c1ccccc1", "group_label": "0 (no)"}

Kindly determine if z-score recorded for CC(=O)Nc1cc(C(F)(F)F)ccc1Oc1cccc(Br)c1 is above or exactly 0.01.
0 (no)

Kindly determine if z-score recorded for O=C(Nc1ccc(N2CCCCC2)c(Cl)c1)c1ccc2c(c1)OCCO2 is above or exactly 0.01.
0 (no)

Kindly determine if z-score recorded for CCC(C)[C@H](NC(=O)Nc1ccc2c(c1)OCCO2)C(=O)O (stereo not given in full) is above or exactly 0.01.
0 (no)

Kindly determine if z-score recorded for Cc1ccc(OCC(=O)c2ccc3c(c2)CCCC3)cc1C is above or exactly 0.01.
0 (no)

Kindly determine if z-score recorded for O=C(Nc1ccc(N2CCCC2)c(Cl)c1)c1ccc2c(c1)OCCO2 is above or exactly 0.01.
1 (yes)
